Sourced from PubChem BioAssay (Tox21)

Assay: qHTS assay to identify small molecule agonists of the estrogen receptor alpha (ER-alpha) signaling pathway in the presence of an antagonist - cell viability counter screen (AID 1259386);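 note: cells exposed to compounds for 22 h at 37 °C before the viability read; nearly all actives have a fitted effect of over 30% in size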
Settings: VM7Luc4E2 viability, CellTiter-Fluor fluorescence, 22 h; series mostly up to 92.4 µM
Inconclusive results are not listed. Calls of active or inactive are those of the source. Calls come from the whole dose curve; as a rule, active = well fitted cell-killing curve with a large enough effect in the repeat runs; inconclusive = weak or mixed curves, or effect the other way; inactive = no such curve, though single readings can be large or run the other way.
Outcome codes: active, inactive

compound	class assignment
COC(=O)c1ccc([N+](=O)[O-])cc1	inactive
Cc1ccc(S(=O)(=O)C(I)I)cc1	active
CCN(CC)c1ccc(C=O)c(O)c1	inactive
CCCCCCCCc1ccc(Nc2ccc(CCCCCCCC)cc2)cc1	inactive
CC(C)(C)C1=CC(=O)C(C(C)(C)C)=CC1=O	inactive
CC(C=O)c1ccccc1 (centres undefined)	inactive
O=C(c1ccccc1)c1ccc(Cl)cc1	inactive
CC1=C(/C=C/C(C)=C/C=C/C(C)=C\C(=O)O)C(C)(C)CCC1	inactive
CCOc1ccc([N+](=O)[O-])cc1	inactive
CC(C)=CCC[C@H](C)CC=O	inactive
COc1c(Br)cc(Br)c(C)c1Br	inactive
[Cl][Sc]([Cl])[Cl]	inactive
CCC(O)CO (centres undefined)	inactive
CCCCCN=C(N)N/N=C/c1c[nH]c2ccc(OC)cc12	active
